The origin of these recorded values is PubChem BioAssay AID2060908.

Tested on: 186277-243-T-J2-PDC complex spheroids, viability
experiment: Anticancer human tumor 186277-243-T-J2-PDC patient-derived colon adenocarcinoma cell line growth inhibition [RAS]
measurementConditions: second compound 0.03 µM; first compound 0.0949 µM; stronger effect = lower value
# key: entry, value: viability, T/C

Worked set:
CCc1c2c(nc3ccc(O)cc13)-c1cc3c(c(=O)n1C2)COC(=O)[C@]3(O)CC + CCn1c(-c2cccnc2C(C)OC)c2c3cc(ccc31)N1CCOC(CC(NC(=O)C(C(C)C)N(C)C(=O)C3(F)CCN(C(=O)C#CC(C)(C)N(C)C)CC3)C(=O)N3CCCC(N3)C(=O)OCC(C)(C)C2)C1 :: 17%
CC1(C)CCC(Nc2ncc(C(F)(F)F)c(-c3c[nH]c4c(P(C)(C)=O)c(C#N)ccc34)n2)CN1 (centres undefined) + CCn1c(-c2cccnc2C(C)OC)c2c3cc(ccc31)N1CCOC(CC(NC(=O)C(C(C)C)N(C)C(=O)C3(F)CCN(C(=O)C#CC(C)(C)N(C)C)CC3)C(=O)N3CCCC(N3)C(=O)OCC(C)(C)C2)C1 :: 57.9%
CCc1c2c(nc3ccc(O)cc13)-c1cc3c(c(=O)n1C2)COC(=O)[C@]3(O)CC + CCn1c(-c2cc(N3CCN(C)CC3)cnc2C(C)OC)c2c3cc(ccc31)-c1csc(n1)CC(NC(=O)C1CC1C)C(=O)N1CCCC(N1)C(=O)OCC(C)(C)C2 :: 2.52%

Field: next molecule
Given the entry CC1(C)CCC(Nc2ncc(C(F)(F)F)c(-c3c[nH]c4c(P(C)(C)=O)c(C#N)ccc34)n2)CN1 (centres undefined) + CCn1c(-c2cc(N3CCN(C)CC3)cnc2C(C)OC)c2c3cc(ccc31)-c1csc(n1)CC(NC(=O)C1CC1C)C(=O)N1CCCC(N1)C(=O)OCC(C)(C)C2 , report its measured viability, T/C.
10.6%

###

System: 186277-243-T-J2-PDC complex spheroids, viability
experiment: Anticancer human tumor 186277-243-T-J2-PDC cell line growth inhibition [RAS]; active means viability on the fitted dose curve at most 10% of control; inactive means the rest;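 note: spheroids exposed to compounds for 7 days before viability read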
measurementConditions: second compound 0.3 µM; first compound 0.003 µM
Field 'call' accepts class 1 = active, class 0 = inactive

Consider the following illustrative entries.
CC1(C)CCC(Nc2ncc(C(F)(F)F)c(-c3c[nH]c4c(P(C)(C)=O)c(C#N)ccc34)n2)CN1 (centres undefined) + CCn1c(-c2cc(N3CCN(C)CC3)cnc2C(C)OC)c2c3cc(ccc31)-c1csc(n1)CC(NC(=O)C1CC1C)C(=O)N1CCCC(N1)C(=O)OCC(C)(C)C2 :: class 1
CCc1c2c(nc3ccc(O)cc13)-c1cc3c(c(=O)n1C2)COC(=O)[C@]3(O)CC + CCn1c(-c2cccnc2C(C)OC)c2c3cc(ccc31)N1CCOC(CC(NC(=O)C(C(C)C)N(C)C(=O)C3(F)CCN(C(=O)C#CC(C)(C)N(C)C)CC3)C(=O)N3CCCC(N3)C(=O)OCC(C)(C)C2)C1 :: class 0
CCc1c2c(nc3ccc(O)cc13)-c1cc3c(c(=O)n1C2)COC(=O)[C@]3(O)CC + CCn1c(-c2cc(N3CCN(C)CC3)cnc2C(C)OC)c2c3cc(ccc31)-c1csc(n1)CC(NC(=O)C1CC1C)C(=O)N1CCCC(N1)C(=O)OCC(C)(C)C2 :: class 1

Please turn your attention to the following entry.
Status in this test for CC1(C)CCC(Nc2ncc(C(F)(F)F)c(-c3c[nH]c4c(P(C)(C)=O)c(C#N)ccc34)n2)CN1 (centres undefined) + CCn1c(-c2cccnc2C(C)OC)c2c3cc(ccc31)N1CCOC(CC(NC(=O)C(C(C)C)N(C)C(=O)C3(F)CCN(C(=O)C#CC(C)(C)N(C)C)CC3)C(=O)N3CCCC(N3)C(=O)OCC(C)(C)C2)C1 ?
class 0

###

Tested on: 186277-243-T-J2-PDC complex spheroids, viability
experiment: Anticancer human tumor 186277-243-T-J2-PDC cell line growth inhibition [RAS]; active = viability on the fitted dose curve at most 10% of control; inactive = the rest;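 note: spheroids exposed to compounds for 7 days before viability read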
measurementConditions: second compound 0.00316 µM; first compound 1 µM
Give your call using only these classes: 1 = active, -1 = inactive

Query: recorded result category for CC1(O)CCCC1n1c(=O)c(C(F)F)cc2cnc(NC3CCN(S(C)(=O)=O)CC3)nc21 (centres undefined) + C=CC(=O)N1CCN(c2nc(OCC3CCCN3C)nc3c(F)c(-c4nc(N)cc(C)c4C(F)(F)F)c(Cl)cc23)C(C)C1 in this test
-1

What is the recorded call for this compound in the test? CC(=O)OC12COC1CC(O)C1(C)C(=O)C(O)C3=C(C)C(OC(=O)C(O)C(NC(=O)OC(C)(C)C)c4ccccc4)CC(O)(C(OC(=O)c4ccccc4)C21)C3(C)C (centres undefined) + C=CC(=O)N1CCN(c2nc(OCC3CCCN3C)nc3c(F)c(-c4nc(N)cc(C)c4C(F)(F)F)c(Cl)cc23)C(C)C1
1

Write down the call the test reported for this compound. Item: Nc1ccn(C2OC(CO)C(O)C2(F)F)c(=O)n1 (centres undefined) + C=CC(=O)N1CCN(c2nc(OCC3CCCN3C)nc3c(F)c(-c4nc(N)cc(C)c4C(F)(F)F)c(Cl)cc23)C(C)C1
-1

Hi, sorry to bother you, what did the test record for C[C@@H](NC(=O)c1ncnc(N)c1Cl)c1ncc(C(=O)Nc2cc(C(F)(F)F)c(Cl)cn2)s1 + C=CC(=O)N1CCN(c2nc(OCC3CCCN3C)nc3c(F)c(-c4nc(N)cc(C)c4C(F)(F)F)c(Cl)cc23)C(C)C1 ?
-1

Please indicate how the test categorized Cc1nc(N2CCC3(CC2)COC(C)C3N)c(CO)nc1Sc1ccnc(N)c1Cl (centres undefined) + C=CC(=O)N1CCN(c2nc(OCC3CCCN3C)nc3c(F)c(-c4nc(N)cc(C)c4C(F)(F)F)c(Cl)cc23)C(C)C1 .
-1

Assay outcome for CCN1CCN(Cc2ccc(Nc3ncc(F)c(-c4cc(F)c5nc(C)n(C(C)C)c5c4)n3)nc2)CC1 + C=CC(=O)N1CCN(c2nc(OCC3CCCN3C)nc3c(F)c(-c4nc(N)cc(C)c4C(F)(F)F)c(Cl)cc23)C(C)C1 : what was it?
-1

###

Parameter: pIC50. Scope: all listed entries.
System: 186277-243-T-J2-PDC complex spheroids, viability
experiment: Anticancer human tumor 186277-243-T-J2-PDC cell line growth inhibition [RAS];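 note: spheroids exposed to compounds for 7 days before viability read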
measurementConditions: curve of first compound; second compound 0.0949 µM
pIC50: −log10 of the molar value.

Example results:
CC(C)n1nc(-c2ccc3oc(N)nc3c2)c2c(N)ncnc21 + CCn1c(-c2cc(N3CCN(C)CC3)cnc2C(C)OC)c2c3cc(ccc31)-c1csc(n1)CC(NC(=O)C1CC1C)C(=O)N1CCCC(N1)C(=O)OCC(C)(C)C2 :: > 9.50
NC1c2ccccc2OC12CCN(c1cnc3c(N4CCCc5ncccc54)n[nH]c3n1)CC2 (centres undefined) + CCn1c(-c2cccnc2C(C)OC)c2c3cc(ccc31)N1CCOC(CC(NC(=O)C(C(C)C)N(C)C(=O)C3(F)CCN(C(=O)C#CC(C)(C)N(C)C)CC3)C(=O)N3CCCC(N3)C(=O)OCC(C)(C)C2)C1 :: < 5.00
CC(Nc1ccc2c(c1)OCCn1cc(N3C(=O)OCC3C(F)F)nc1-2)C(N)=O (centres undefined) + CCn1c(-c2cc(N3CCN(C)CC3)cnc2C(C)OC)c2c3cc(ccc31)-c1csc(n1)CC(NC(=O)C1CC1C)C(=O)N1CCCC(N1)C(=O)OCC(C)(C)C2 :: > 7.50

Would you kindly look at the next entry?
So what's the measured pIC50 for this one? Nc1ccn(C2OC(CO)C(O)C2(F)F)c(=O)n1 (centres undefined) + CCn1c(-c2cc(N3CCN(C)CC3)cnc2C(C)OC)c2c3cc(ccc31)-c1csc(n1)CC(NC(=O)C1CC1C)C(=O)N1CCCC(N1)C(=O)OCC(C)(C)C2
> 8.50

###

Test system: 186277-243-T-J2-PDC complex spheroids, viability
experiment: Anticancer human tumor 186277-243-T-J2-PDC cell line growth inhibition [RAS]; active = viability on the fitted dose curve at most 10% of control; inactive = the rest;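 note: spheroids exposed to compounds for 7 days before viability read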
measurementConditions: second compound 0.03 µM; first compound 10 µM
Pick one and only one: yes (active), no (inactive)

Assay outcome for C[C@@H](NC(=O)c1ncnc(N)c1Cl)c1ncc(C(=O)Nc2cc(C(F)(F)F)c(Cl)cn2)s1 + CCn1c(-c2cccnc2C(C)OC)c2c3cc(ccc31)N1CCOC(CC(NC(=O)C(C(C)C)N(C)C(=O)C3(F)CCN(C(=O)C#CC(C)(C)N(C)C)CC3)C(=O)N3CCCC(N3)C(=O)OCC(C)(C)C2)C1 : what was it?
no

Hi, do you know how CC(C)NCC(C(=O)N1CCN(c2ncnc3c2C(C)CC3O)CC1)c1ccc(Cl)cc1 (centres undefined) + CCn1c(-c2cc(N3CCN(C)CC3)cnc2C(C)OC)c2c3cc(ccc31)-c1csc(n1)CC(NC(=O)C1CC1C)C(=O)N1CCCC(N1)C(=O)OCC(C)(C)C2 came out in this test?
yes

Hey, what did the test say about CC(Nc1ccc2c(c1)OCCn1cc(N3C(=O)OCC3C(F)F)nc1-2)C(N)=O (centres undefined) + CCn1c(-c2cc(N3CCN(C)CC3)cnc2C(C)OC)c2c3cc(ccc31)-c1csc(n1)CC(NC(=O)C1CC1C)C(=O)N1CCCC(N1)C(=O)OCC(C)(C)C2 ?
yes

Kindly provide the recorded test outcome for the following molecule: CC(=O)OC12COC1CC(O)C1(C)C(=O)C(O)C3=C(C)C(OC(=O)C(O)C(NC(=O)OC(C)(C)C)c4ccccc4)CC(O)(C(OC(=O)c4ccccc4)C21)C3(C)C (centres undefined) + CCn1c(-c2cccnc2C(C)OC)c2c3cc(ccc31)N1CCOC(CC(NC(=O)C(C(C)C)N(C)C(=O)C3(F)CCN(C(=O)C#CC(C)(C)N(C)C)CC3)C(=O)N3CCCC(N3)C(=O)OCC(C)(C)C2)C1
yes
